B1: TPR t1 (parent)
chain: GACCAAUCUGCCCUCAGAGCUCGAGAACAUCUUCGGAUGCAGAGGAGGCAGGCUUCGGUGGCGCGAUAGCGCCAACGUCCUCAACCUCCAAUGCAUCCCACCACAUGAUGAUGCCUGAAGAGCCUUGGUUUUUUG

- Variants of: B1
- assay.overview: polymerase ribozyme fitness, log enrichment relative to wild type (log ratio); higher = more active; in vitro selection for triplet polymerase activity
// label = condition met if polymerase ribozyme fitness (log ratio) is not less than -2, otherwise condition not met

Check this variant for polymerase ribozyme fitness (log ratio) at or above -2: C73A A100C A119U condition met

// query: G60A A84U U87A G113U G122A condition not met

// query: C11G U130A condition met

// query: G39U G71U condition met

// query: G19U C89U G120C condition not met

// query: A5U C13G C40U U55A U59A C82G condition not met

// query: C85U U130A condition met

// query: A41U A66G U92A condition not met

// query: C64U G117A condition met

// query: G47A U54C C97G condition not met

// query: C4G G110U condition not met

// query: C8G A27U C89G condition not met

// query: A46U C89U condition not met

// query: C4A C70U condition met

// query: A66C U129A condition not met

// query: A37U U112A condition met

// query: C53G C70U condition met

// query: C72A U96A condition met

// query: C3A G48A A84G C114U condition not met

// query: C70U U78C C80A C97U U129A condition not met

// query: G110A A118G condition met
